Assay: Metabolic stability in Sprague-Dawley rat assessed as parent compound remaining at 3 mg/kg, po measured after 10 mins by LC-MS analysis
Type: ADME, organism-based
Details: in vivo, read-out: Stability
quantity.name: remaining at 10 min (%)
One number for each entry, in %.

# input Given "C=C[C@]1(C)C[C@@H](OC(=O)CSc2nc(-c3cc[n+](Cc4ccc(C)cc4)cc3)cs2)[C@]2(C)[C@H](C)CC[C@]3(CCC(=O)[C@H]32)[C@@H](C)[C@@H]1O.[Br-]" , state its recorded remaining at 10 min.
# output 0

---

Assay: AUC(0 to t) in Sprague-Dawley rat at 1 mg/kg, iv by LC-MS analysis
Assay type: ADME, organism-based
Parameters: dose 1 mg/kg, route iv
Details: in vivo
quantity.name: AUC(0-t) (ng·h/mL)
One number for each entry, in ng·h/mL.

# input Requested read-out: AUC(0-t). Entry: "C=C[C@]1(C)C[C@@H](OC(=O)CSc2nc(-c3cc[n+](Cc4ccc(C)cc4)cc3)cs2)[C@]2(C)[C@H](C)CC[C@]3(CCC(=O)[C@H]32)[C@@H](C)[C@@H]1O.[Br-]"
# output 539
